All values here come from the FLAb antibody collection (doi:10.1101/2023.12.08.570889).

Biological target: IL36R
Experiment: Kd (SPR)
pKd: −log10 of the molar value.
Reported pKd is given for each of the following binders.
outcomeMeasure: pKd

unnamed (protein) chain 1: QVQLVQSGAEVKKPGASVKVSCKASGYSFTSSWIHWVKQAPGQGLEWMGEINPGNVRTNYNENFRNKVTMTVDTSISTAYMELSRLRSDDTAVYYCTRVRFGYPWFDYWGQGTLVTVSS chain 2: QIVLTQSPGTLSLSPGERATMTCTASSSVSSSYFHWYQQKPGQAPRLWIYRTSRLASGVPDRFSGSGSGTDFTLTISRLEPEDAATYYCHQFHRSPLTFGAGTKLEIK ... 9.16
unnamed (protein) chain 1: QVQLVQSGAEVKKPGASVKVSCKASGYSFTSSWIHWVKQAPGQGLEWMGEINPGNVRTNYNENFRNKVTMTVDTSISTAYMELSRLRSDDTAVYYCTRVMYGEPYFDYWGQGTLVTVSS chain 2: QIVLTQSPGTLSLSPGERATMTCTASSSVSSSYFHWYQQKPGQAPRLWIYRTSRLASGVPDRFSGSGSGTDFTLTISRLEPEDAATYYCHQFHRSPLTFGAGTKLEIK ... 8.50
